Each entry below carries its recorded Adip..
System: 3T3-L1 / MEFs
Test: Adipocyte differentiation assay, induction, Oil Red O staining
Type: cell-based, mouse
Design: key: 0: representing similar results to DPD; −1: representing even less adipocyte differentiation; +1: representing more adipocyte differentiation (both relative to DPD)
Assay context: adipocyte differentiation relative to DPD (SN1), Oil Red O staining
Quantity name: Adip.

• O=C(O)CC/C=C\C[C@@H]1COC(c2cccc(Cl)c2Cl)O[C@@H]1c1ccccc1O (stereo partly shown) = 0
• COc1ccccc1[C@H]1OC[C@@H](C/C=C\CCC(=O)O)[C@@H](c2ccccc2O)O1 = −1
• O=C(O)CC/C=C\C[C@@H]1COC(c2cccc3c2OCO3)O[C@@H]1c1ccccc1O (mixture of isomers) = 0
• O=C(O)CC/C=C\C[C@@H]1COC(c2coc3ccc(Cl)cc3c2=O)O[C@@H]1c1ccccc1O (stereo partly shown) = −1
